Source of measurements: patent US9387209B2

- assayed-target: zinc-mediated β-amyloid aggregation (Homo sapiens, UniProt P05067)
- Sequence (P05067 672-711 limits assumed): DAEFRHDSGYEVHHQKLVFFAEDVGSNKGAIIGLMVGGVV
- procedure-text: Anti-amyloid aggregation assay, thioflavin S
- Assay type: biochemical
- experimental-conditions: detected by thioflavin S
readout-kind: IC50 (µM)

Below are worked cases with known answers.
Cc1nc2cc(/C=C/C(=O)NO)ccc2c(=O)n1CCc1c[nH]c2ccccc12: 7.4
O=C(/C=C/c1ccc2c(=O)n(CCc3ccccc3)cnc2c1)NO: 5.5
Cc1nc2cc(/C=C/C(=O)NO)ccc2c(=O)n1CCc1ccccc1: 9.5

(A) Cc1nc2cc(/C=C/C(=O)NO)ccc2c(=O)n1Cc1ccccc1
(B) Cc1nc2cc(/C=C/C(=O)Nc3ccccc3N)ccc2c(=O)n1CCc1ccccc1
(C) CCc1nc2cc(/C=C/C(=O)NO)ccc2c(=O)n1CCc1ccccc1
Request: Hi! Can you put these in order of IC50, lowest number first? Rank the items, then write their labels in that order.
Response: C, B, A

----------
- assayed-target: zinc-mediated β-amyloid aggregation (Homo sapiens, UniProt P05067)
- procedure-text: Anti-amyloid aggregation assay, BCA
- Type: biochemical
- experimental-conditions: detected by BCA
- Procedure: Anti-Amyloid Aggregation Assay. The effects of compounds on inhibition of β-amyloid aggregation were assayed. The levels of β-amyloid aggregates were determined by thioflavin S, BCA or CR assays (Tables 1). Thioflavin S, and Congo red are for in vitro staining of aggregated β-amyloid. Bicinchoninic acid (BCA) assay determines the total protein level or concentration.
readout-kind: IC50 (µM)

Cc1nc2c(/C=C/C(=O)NO)cccc2c(=O)n1-c1ccccc1: 11.7
Cc1nc2ccc(/C=C/C(=O)NO)cc2c(=O)n1-c1ccccc1: 10.1
Cc1nc2cc(/C=C/C(=O)NO)ccc2c(=O)n1Cc1ccccc1: 10.6
Cc1nc2cc(/C=C/C(=O)Nc3ccccc3N)ccc2c(=O)n1CCc1ccccc1: 13.8
Cc1nc2cc(/C=C/C(=O)NO)ccc2c(=O)n1CCc1ccccc1: 11.7
Cc1nc2cccc(/C=C/C(=O)NO)c2c(=O)n1-c1ccccc1: 10.1
Cc1nc2cc(/C=C/C(=O)NO)ccc2c(=O)n1CCc1c[nH]c2ccccc12: 11.1

----------
Each entry below carries its reported melting point.

CC(C)c1nc2cc(/C=C/C(=O)NO)ccc2c(=O)n1CCc1ccccc1 [Compound 1l]: 173 to 174 °C (dec.)
O=C(/C=C/c1ccc2c(=O)n(CCc3ccccc3)c(C3CC3)nc2c1)NO [Compound 1k]: 204 to 206 °C (dec.)
CCc1nc2c(-c3ccc(C(=O)NO)cc3)cccc2c(=O)n1CCc1ccccc1 [Compound 5a]: 202 to 204 °C (dec.)
CCc1nc2cc(F)c(/C=C/C(=O)NO)cc2c(=O)n1CCc1ccccc1 [Compound 3a]: 183 to 185 °C (dec.)
CCc1nc2cc(/C=C/C(=O)NO)ccc2c(=O)n1CCCc1ccccc1 [Compound 1j]: 189 to 191 °C

Proceeding to the next compound to report its melting point.
Recorded melting point (compound CCc1nc2cc(Cc3ccc(C(=O)NO)cc3)ccc2c(=O)n1CCc1ccccc1 [Compound 4b] ): 181 to 183 °C (dec.)
